# Assayed target: Serotonin (5-HT) receptor
# Run description: In vitro inhibitory activity was evaluated against,[3H]spiperone rat frontal cortex (SPFC) serotonin receptor
# Assay type: tissue-based
Property measured: IC50 (nM)
Write down the numeric answer in nM and omit the unit.

Enquiry: Look up IC50 for this compound: CN1CCc2cccc3c2[C@H]1Cc1ccc(O)c(O)c1-3 [APOMORPHINE]
Return: 4500

Query compound follows.
Enquiry: Look up IC50 for this compound: CCN(CC)S(=O)(=O)N[C@H]1C[C@@H]2c3cccc4[nH]cc(c34)C[C@H]2N(C)C1 [ETISULERGINE]
Return: 26

----------
# Assayed target: Adrenergic receptor alpha-2 (Rattus norvegicus, UniProt P22086+P19328+P22909)
# Sequence (P22086 whole entry): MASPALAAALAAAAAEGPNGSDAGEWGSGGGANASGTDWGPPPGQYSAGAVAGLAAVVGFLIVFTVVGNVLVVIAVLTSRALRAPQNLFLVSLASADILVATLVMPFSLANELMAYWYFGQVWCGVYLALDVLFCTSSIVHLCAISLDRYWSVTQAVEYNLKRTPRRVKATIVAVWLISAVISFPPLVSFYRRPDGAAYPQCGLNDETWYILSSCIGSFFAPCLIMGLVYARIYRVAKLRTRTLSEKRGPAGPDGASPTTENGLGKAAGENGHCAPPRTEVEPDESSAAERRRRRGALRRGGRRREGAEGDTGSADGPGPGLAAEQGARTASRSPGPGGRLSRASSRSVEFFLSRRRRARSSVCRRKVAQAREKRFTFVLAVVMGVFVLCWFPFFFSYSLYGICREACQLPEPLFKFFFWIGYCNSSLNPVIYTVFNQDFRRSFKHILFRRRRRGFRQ
# Sequence (P19328 whole entry): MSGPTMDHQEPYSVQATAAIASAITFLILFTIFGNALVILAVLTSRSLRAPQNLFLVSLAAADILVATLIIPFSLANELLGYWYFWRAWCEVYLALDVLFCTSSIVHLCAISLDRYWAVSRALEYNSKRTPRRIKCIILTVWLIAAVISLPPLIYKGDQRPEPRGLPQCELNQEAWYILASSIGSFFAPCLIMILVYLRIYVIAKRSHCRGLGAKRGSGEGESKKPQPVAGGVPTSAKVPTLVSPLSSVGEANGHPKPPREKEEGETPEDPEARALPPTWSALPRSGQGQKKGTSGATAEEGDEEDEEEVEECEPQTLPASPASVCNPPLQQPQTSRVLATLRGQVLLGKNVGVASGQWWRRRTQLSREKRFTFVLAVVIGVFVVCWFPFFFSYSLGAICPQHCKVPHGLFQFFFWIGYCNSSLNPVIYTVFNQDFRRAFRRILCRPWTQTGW
# Sequence (P22909 whole entry): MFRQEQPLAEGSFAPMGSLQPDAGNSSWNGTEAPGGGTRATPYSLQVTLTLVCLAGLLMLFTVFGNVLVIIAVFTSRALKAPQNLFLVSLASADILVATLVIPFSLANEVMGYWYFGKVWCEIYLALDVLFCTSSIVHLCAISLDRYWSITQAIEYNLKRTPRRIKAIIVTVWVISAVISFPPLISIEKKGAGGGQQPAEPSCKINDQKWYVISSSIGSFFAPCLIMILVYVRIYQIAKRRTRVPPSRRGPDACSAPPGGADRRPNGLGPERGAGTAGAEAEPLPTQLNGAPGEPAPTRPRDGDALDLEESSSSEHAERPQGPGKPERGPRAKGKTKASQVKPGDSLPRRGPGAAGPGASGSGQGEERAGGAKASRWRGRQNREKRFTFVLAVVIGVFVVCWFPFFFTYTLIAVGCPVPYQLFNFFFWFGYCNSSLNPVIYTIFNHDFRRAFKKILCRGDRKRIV
# Run description: In vitro inhibitory activity was evaluated against,[3H]clonidine (Clon) rat brain minus cerebellum Alpha-2 adrenergic receptor
# Assay type: tissue-based
Property measured: IC50 (µM)
Write down the numeric answer in µM and omit the unit.

Field: example entries. Status: answers known.
Enquiry: Provide the documented IC50 with Adrenergic receptor alpha-2 (Rattus norvegicus, UniProt P22086+P19328+P22909) as the system for CCN(CC)S(=O)(=O)N[C@H]1C[C@@H]2c3cccc4[nH]cc(c34)C[C@H]2N(C)C1 [ETISULERGINE]
Return: 0.48

Enquiry: Provide the documented IC50 with Adrenergic receptor alpha-2 (Rattus norvegicus, UniProt P22086+P19328+P22909) as the system for CCCN1CC(NS(=O)(=O)N(CC)CC)CC2Cc3c(O)cccc3CC21 (racemic) [QUINAGOLIDE]
Return: 5.6

Query molecule follows.
Enquiry: Provide the documented IC50 with Adrenergic receptor alpha-2 (Rattus norvegicus, UniProt P22086+P19328+P22909) as the system for CCCN1CC(NS(=O)(=O)N(CC)CC)CC2Cc3c(O)cccc3CC21 (stereo in doubt; -1) [QUINAGOLIDE]
Return: 7.4
